These entries and their values trace back to ChEMBL document CHEMBL1201862.

Reported GI50 is given for each of the following molecules.
system: Malme-3M; test: NCI tumour cell line growth inhibition, 48 h
Activity calls are given as the source filed them. Cut-off read from the data, not from the text of the source: active = GI50 up to about 1.1 µM and inactive = higher.

| Molecule | GI50 |
| --- | --- |
| O=C1c2ccccc2C(=O)C12CCc1ccccc12 | > 100 µM (inactive) |
| CCOC(=O)C12C3CCC1C2C(=O)C3 (stereo not given) | > 100 µM (inactive) |
| O=c1cc(-c2ccc(O)c(O)c2)oc2cc(O[C@H]3O[C@H](CO)[C@@H](O)[C@H](O)[C@H]3O)cc(O)c12 | > 100 µM (inactive) |
| CCOC(=O)c1c(SC(=O)c2ccc(Cl)cc2)n(-c2ccccc2)c(=S)n(-c2ccccc2)c1=O | > 100 µM (inactive) |
| CN(C)c1ccc(/C=c2/sc3nc(=O)c(-c4ccccc4NC(=O)C(F)(F)F)nn3c2=O)cc1 | > 100 µM (inactive) |
| C(=N\Cc1ccccc1)/c1ccccc1-c1ccccc1/C=N/Cc1ccccc1 | > 9.62 µM (inactive) |
| CN(C)c1ccc(/C=N/NC(=S)Nc2ccccc2)cc1 | > 100 µM (inactive) |
| Cc1cc2c(c3c1c1ccccc1n3C)C(=O)c1ccccc1C2=O | > 100 µM (inactive) |
| C#Cc1cc(CN(CC(=O)OC(C)(C)C)CC(=O)OC(C)(C)C)nc(CN(CC(=O)OC(C)(C)C)CC(=O)OC(C)(C)C)c1 | 4.17 µM (inactive) |

From here, focus on the item given below.
(Q) Field request: GI50 | item: C#CCSc1nc(N)c2ncn(C3OC(CO)C(O)C3O)c2n1 (stereo not given)
(A) > 100 µM (inactive)
